List of pIC50 values.
# Test system: DU-145
# procedureDetails: Cytotoxicity against human DU145 cells assessed as inhibition of cell viability after 48 hrs by MTT assay
# Assay type: functional, cell-based
# measurementContext: DU-145, 48 h
Kindly note that pIC50 refers to -log10 of the concentration in mol/L and answer with the value alone.

Examples from the recorded data:
| smilesText | pIC50 |
| --- | --- |
| COc1ccc(OC)c(/C=C/C(=O)/C=C/c2nc3ccccn3c2-c2ccccc2)c1 | 5.47 |
| COc1cc(OC)c(OC)cc1/C=C/C(=O)/C=C/c1nc2ccccn2c1-c1ccccc1 | 5.43 |
| COc1ccc(/C=C/C(=O)/C=C/c2nc3ccccn3c2-c2ccc(F)c(F)c2)cc1OC | 5.31 |

Complete the entry with pIC50 for "COc1ccc(OC)c(/C=C/C(=O)/C=C/c2nc3ccccn3c2-c2ccc(F)c(F)c2)c1"
5.38

Complete the entry with pIC50 for "COc1ccc(-c2c(/C=C/C(=O)/C=C/c3cc(OC)c(OC)cc3OC)nc3ccccn23)cc1"
5.25

Complete the entry with pIC50 for "COc1ccc(/C=C/C(=O)/C=C/c2nc3ccccn3c2-c2ccc(F)c(F)c2)c(OC)c1"
5.07
